These entries and their values trace back to patent US12590062B2.

// reported pEC50 per item
- STUDY_TARGET: PD-1/PD-L1 interaction (Homo sapiens, UniProt Q9NZQ7)
- Construct: expressed in transfected cells; host or cells: CHO cells (aAPC-PD-L1) co-cultured with Jurkat cells overexpressing PD-1 and an NFAT-luciferase reporter
- Sequence (Q9NZQ7 19-290): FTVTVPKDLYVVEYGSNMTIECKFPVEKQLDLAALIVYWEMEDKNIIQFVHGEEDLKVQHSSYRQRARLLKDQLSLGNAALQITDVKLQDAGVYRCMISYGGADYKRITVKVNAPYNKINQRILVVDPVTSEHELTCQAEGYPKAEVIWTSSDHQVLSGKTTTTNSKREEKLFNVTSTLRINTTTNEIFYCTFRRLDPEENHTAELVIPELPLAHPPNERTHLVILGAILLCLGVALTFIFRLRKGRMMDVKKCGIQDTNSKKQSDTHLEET
- PROTOCOL_DESCRIPTION: PD-1/PD-L1 NFAT reporter co-culture assay
- Assay type: cell-based
- CONDITION_NOTES: Jurkat PD-1 NFAT-luciferase cells co-cultured with aAPC-PD-L1 CHO cells, 6 hrs at 37° C.; read-out: EC50 NFAT Luciferase
pEC50 is defined as minus the log10 of a concentration measured in mol/L.

Some solved entries appear below for comparison.
smi=Cc1c(COc2nc(OCc3cc(C#N)cc(C#N)c3)c(CNC[C@@H](O)CC(=O)O)cc2Cl)cccc1-c1cccc(COc2nc(OCc3cc(C#N)cc(C#N)c3)c(CNC[C@@H](O)CC(=O)O)cc2Cl)c1C study_target="PD-1/PD-L1 interaction (Homo sapiens, UniProt Q9NZQ7)" measure_name=pEC50 experimental_value=7.10
smi=COc1nc(OCc2cccc(-c3cccc(-c4ccc5c(c4)C[C@@H](N)C5)c3Cl)c2Cl)c(Br)cc1CNC[C@H](O)CC(=O)O study_target="PD-1/PD-L1 interaction (Homo sapiens, UniProt Q9NZQ7)" measure_name=pEC50 experimental_value=6.71
smi=Cc1c(COc2cc(OCc3cncc(C#N)c3)c(CNC[C@@H](O)CC(=O)O)cc2Cl)cccc1-c1cccc(-c2ccc3sc(CNC[C@@H](O)CC(=O)O)nc3c2)c1C study_target="PD-1/PD-L1 interaction (Homo sapiens, UniProt Q9NZQ7)" measure_name=pEC50 experimental_value=6.50
smi=Cc1c(COc2cc(OCc3cncc(C#N)c3)c(CN[C@@](C)(CO)C(=O)O)cc2Cl)cccc1-c1cccc(-c2cccc([C@H](C)N)c2)c1C study_target="PD-1/PD-L1 interaction (Homo sapiens, UniProt Q9NZQ7)" measure_name=pEC50 experimental_value=7.23
smi=Cc1c(COc2cc(OCc3cncc(C#N)c3)c(CN[C@@](C)(CO)C(=O)O)cc2Cl)cccc1-c1cccc(-c2ccc(CN[C@H]3CCCNC3=O)cc2)c1C study_target="PD-1/PD-L1 interaction (Homo sapiens, UniProt Q9NZQ7)" measure_name=pEC50 experimental_value=6.92

stdin: Provide measured pEC50 on PD-1/PD-L1 interaction (Homo sapiens, UniProt Q9NZQ7) for COc1nc(-c2cccc(-c3cccc4c3CC[C@@H]4Oc3nc(OCc4cncc(C#N)c4)c(CN[C@@](C)(CO)C(=O)O)cc3Cl)c2Br)ccc1CNC[C@@H]1CCC(=O)N1 please.
stdout: 7.37

stdin: Provide measured pEC50 on PD-1/PD-L1 interaction (Homo sapiens, UniProt Q9NZQ7) for COc1nc(O[C@H]2CCc3c(-c4cccc5c4CC[C@@H]5Oc4nc(OCc5cncc(C#N)c5)c(CNC[C@@H](O)CC(=O)O)cc4Br)cccc32)c(Br)cc1CNC[C@@H](O)CC(=O)O please.
stdout: 7.19

stdin: Provide measured pEC50 on PD-1/PD-L1 interaction (Homo sapiens, UniProt Q9NZQ7) for C[C@@](CO)(NCc1cc(Cl)c(O[C@H]2CCc3c(-c4cccc(-c5ccc(OCCNCCO)cc5)c4Cl)cccc32)nc1OCc1cncc(C#N)c1)C(=O)O please.
stdout: 7.36

stdin: Provide measured pEC50 on PD-1/PD-L1 interaction (Homo sapiens, UniProt Q9NZQ7) for COc1nc(O[C@H]2CCc3c(-c4cccc(-c5ccc(CNC[C@@H]6CCC(=O)N6)c(OCC#N)c5)c4Cl)cccc32)c(Cl)cc1CN[C@@H]1CCC[C@@H]1O please.
stdout: 7.41

stdin: Provide measured pEC50 on PD-1/PD-L1 interaction (Homo sapiens, UniProt Q9NZQ7) for COc1nc(-c2cccc(-c3cccc(-c4cnn(CCN)c4)c3Cl)c2Cl)ccc1CNC[C@@H]1CCC(=O)N1 please.
stdout: 6.77

stdin: Provide measured pEC50 on PD-1/PD-L1 interaction (Homo sapiens, UniProt Q9NZQ7) for Cc1c(COc2cc(OCc3cncc(C#N)c3)c(CN[C@@](C)(CO)C(=O)O)cc2Cl)cccc1-c1cccc(-c2ccc(CNC[C@@H]3CCC(=O)N3)cc2)c1C please.
stdout: 7.47
